Each entry below lists one item and its recorded residual activity value.
Target: Solute carrier organic anion transporter family member 1B1 (Homo sapiens)
Sequence (Q9Y6L6 whole entry): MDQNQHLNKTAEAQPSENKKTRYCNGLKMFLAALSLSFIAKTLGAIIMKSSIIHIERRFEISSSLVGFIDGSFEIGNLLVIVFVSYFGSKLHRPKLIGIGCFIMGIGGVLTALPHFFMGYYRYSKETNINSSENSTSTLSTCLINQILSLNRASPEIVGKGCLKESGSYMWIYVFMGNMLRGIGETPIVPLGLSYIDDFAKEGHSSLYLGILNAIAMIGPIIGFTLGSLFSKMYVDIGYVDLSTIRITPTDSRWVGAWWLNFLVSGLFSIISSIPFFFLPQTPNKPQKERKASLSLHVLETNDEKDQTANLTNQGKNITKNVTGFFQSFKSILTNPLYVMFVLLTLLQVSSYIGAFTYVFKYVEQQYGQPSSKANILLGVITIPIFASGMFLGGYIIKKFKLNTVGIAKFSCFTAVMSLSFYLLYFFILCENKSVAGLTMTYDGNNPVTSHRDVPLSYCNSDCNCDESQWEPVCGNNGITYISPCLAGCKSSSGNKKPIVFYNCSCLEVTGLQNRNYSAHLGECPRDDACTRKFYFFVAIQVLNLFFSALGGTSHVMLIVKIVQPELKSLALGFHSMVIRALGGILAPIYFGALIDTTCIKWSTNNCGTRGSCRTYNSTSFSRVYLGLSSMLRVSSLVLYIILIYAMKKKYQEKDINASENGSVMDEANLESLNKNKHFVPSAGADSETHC
Conditions: chinese hamster, cho, 10 µM
Your answer should be a plain number; it is taken to be in %.

Could you share which residual activity value was measured for CCCCC(CC)CN=C(N)N=C(N)NCCCCCCNC(N)=NC(N)=NCC(CC)CCCC.Cl (centres undefined) [ALEXIDINE HYDROCHLORIDE] ? 69.95

Could you share which residual activity value was measured for C#CCCCCCCCCCCCC(O)CC(O)CO (centres undefined) ? 96.1

Could you share which residual activity value was measured for CCOC(=O)[N-]c1cn(N2CCOCC2)n[o+]1 ? 70.9

Could you share which residual activity value was measured for Cc1ccc(S(=O)(=O)NC(=O)NN2CC3CCCC3C2)cc1 (centres undefined) [GLICLAZIDE] ? 106.3

Could you share which residual activity value was measured for COc1ccc(-c2coc3cc(O)ccc3c2=O)c(OC)c1 ? 74.56

Could you share which residual activity value was measured for CCC1(c2ccccc2)C(=O)NCNC1=O ? 78.09
